Values compiled from ChEMBL document CHEMBL1287653.

Reported values of Ratio for individual entries
- Tested on: Calf thymus DNA
- PROTOCOL NOTES: Binding affinity to calf thymus DNA assessed as ratio of final absorbance area to absorbance of compound at 100 uM after 24 hrs by UV spectrophotometer analysis
- Assay type: nucleic-acid assay
- MEASUREMENT CONTEXT: Bos taurus

Worked set:
Cc1ccc2nc3ccc(N)cc3nc2c1 ... 0.85
Cc1cc2c(cc1F)[n+]([O-])c1ccc(N)cc1[n+]2[O-] ... 0.85
Nc1ccc2c(c1)[n+]([O-])c1cc(Cl)c(Cl)cc1[n+]2[O-] ... 0.98

Write down Ratio measured for item COc1cc(NS(C)(=O)=O)ccc1Nc1c2ccccc2nc2ccccc12
0.3

Write down Ratio measured for item Nc1ccc2c(c1)nc1cc(Br)ccc1[n+]2[O-]
0.92
